Target: Mitogen-activated protein kinase kinase kinase kinase 2 (Homo sapiens) (UniProt Q12851)
Sequence (whole entry): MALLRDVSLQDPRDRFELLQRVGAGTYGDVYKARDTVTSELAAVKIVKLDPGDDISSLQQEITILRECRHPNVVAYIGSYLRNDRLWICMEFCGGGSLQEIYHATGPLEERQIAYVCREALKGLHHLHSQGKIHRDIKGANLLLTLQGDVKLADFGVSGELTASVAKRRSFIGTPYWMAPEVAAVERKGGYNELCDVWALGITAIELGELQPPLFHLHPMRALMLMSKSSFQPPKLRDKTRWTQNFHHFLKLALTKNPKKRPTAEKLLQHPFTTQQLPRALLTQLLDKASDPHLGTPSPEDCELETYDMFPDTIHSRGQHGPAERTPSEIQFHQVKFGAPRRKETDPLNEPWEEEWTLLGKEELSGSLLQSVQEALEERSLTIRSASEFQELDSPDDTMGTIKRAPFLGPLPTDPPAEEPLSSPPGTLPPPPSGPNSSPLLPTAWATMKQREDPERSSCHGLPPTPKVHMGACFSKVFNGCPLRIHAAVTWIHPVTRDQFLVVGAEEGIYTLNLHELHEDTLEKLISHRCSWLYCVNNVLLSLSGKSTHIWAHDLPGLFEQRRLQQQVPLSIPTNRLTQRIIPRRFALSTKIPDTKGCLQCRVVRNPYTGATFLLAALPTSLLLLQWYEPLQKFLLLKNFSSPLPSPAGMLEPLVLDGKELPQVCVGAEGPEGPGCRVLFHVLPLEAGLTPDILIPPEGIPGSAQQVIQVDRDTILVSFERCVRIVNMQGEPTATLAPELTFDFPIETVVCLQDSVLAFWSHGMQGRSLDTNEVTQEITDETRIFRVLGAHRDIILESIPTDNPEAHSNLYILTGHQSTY
Settings: at 1 µM

Line notation: O=c1cc(-c2cccc3c2Sc2ccccc2S3)oc(N2CCOCC2)c1
residual activity (%): 101

Line notation: CC(C)n1cnc2c(NCc3ccccc3)nc(NCCCO)nc21
residual activity (%): 87

Line notation: Nc1ccc2ncnc(NCCc3ccc(Oc4ccccc4)cc3)c2c1
residual activity (%): 72

Line notation: CO[C@H]1C[C@@H]2CC[C@@H](C)[C@@](O)(O2)C(=O)C(=O)N2CCCC[C@H]2C(=O)O[C@H]([C@H](C)C[C@@H]2CC[C@@H](O)[C@H](OC)C2)CC(=O)[C@H](C)/C=C(\C)[C@@H](O)[C@@H](OC)C(=O)[C@H](C)C[C@H](C)/C=C/C=C/C=C/1C
residual activity (%): 85

Line notation: CO[C@H]1[C@@H](OC)C[C@H](C)[C@@H](OC)C2=CC(=O)C=C(NC(=O)/C(C)=C/C=C/[C@H](OC)[C@@H](OC(N)=O)/C(C)=C/[C@@H]1C)C2=O
residual activity (%): 92

Line notation: Oc1c2ccccc2c2c3c(cccc13)N=N2
residual activity (%): 16

Line notation: Ic1cccc(CSc2nnc(-c3ccncc3)o2)c1
residual activity (%): 49

Line notation: Cc1cc(Nc2nc(-c3ccccc3)nc3ccccc23)n[nH]1
residual activity (%): 38

Line notation: COc1cc2ncnc(N3CCN(C(=O)Nc4ccc(Oc5ccccc5)cc4)CC3)c2cc1OC
residual activity (%): 80

Line notation: CC[n+]1c(/C=C/N(C)c2ccccc2)n(-c2ccccc2)c2ccc(-c3nc4ccccc4s3)cc21
residual activity (%): 103

Line notation: N#CC(C#N)=C(N)/C(C#N)=C/c1ccc(O)cc1
residual activity (%): 84

Line notation: CCOc1cc2ncnc(Nc3cccc(Br)c3)c2cc1OCC
residual activity (%): 78

Line notation: N#CCCc1ccc2c(c1)-c1[nH]c3ccc([N+](=O)[O-])cc3c1CC(=O)N2
residual activity (%): 2

Line notation: Cn1cc(/C=C2\C(=O)Nc3ccc(S(N)(=O)=O)cc32)c2ccccc21
residual activity (%): 7

Line notation: c1ccc(-c2n[nH]c3c2oc2ccccc23)cc1
residual activity (%): 84

Line notation: COc1cc2ncc(-c3ccccc3)nc2cc1OC
residual activity (%): 96

Line notation: Cc1cc2ncc(-c3ccccc3)nc2cc1C
residual activity (%): 98

Line notation: CCN(CC)CCCCN1c2ccccc2Oc2ccc(Cl)cc21
residual activity (%): 109

Line notation: Nc1n[nH]c2nnc(-c3c(-c4ccccc4)nn4ccccc34)cc12
residual activity (%): 67

Line notation: CCN(CC)C(=O)c1ccc(Nc2nc(OCC3CCCCC3)c3nc[nH]c3n2)cc1
residual activity (%): 33

Line notation: Oc1n[nH]c2nnc(-c3c(-c4ccccc4)nn4ccccc34)cc12
residual activity (%): 82

Line notation: CNc1cc2c(Nc3cccc(Br)c3)ncnc2cn1
residual activity (%): 81

Line notation: O=C1NC(=O)/C(=C/c2ccc3c(c2)OC(F)(F)O3)S1
residual activity (%): 106

Line notation: O=C1NC(=O)c2cc(Nc3ccc(F)cc3)c(Nc3ccc(F)cc3)cc21
residual activity (%): 81

Line notation: COc1ccc(OC)c2c(=S)c3ccccc3[nH]c12
residual activity (%): 90

Line notation: Nc1cccc(-c2cc3c(Oc4cccc(O)c4)ncnc3[nH]2)c1
residual activity (%): 42

Line notation: O=C1Nc2ccc(Br)cc2/C1=C\c1cc2c([nH]1)CCCC2
residual activity (%): 24

Line notation: O=[N+]([O-])c1ccc(-c2nc(-c3ccc(F)cc3)c(-c3ccncc3)[nH]2)cc1
residual activity (%): 99

Line notation: c1ccc(-c2n[nH]cc2-c2ccnc3ccccc23)nc1
residual activity (%): 43

Line notation: N#C/C(=C(\N)Sc1ccc(N)cc1)c1ccccc1C(F)(F)F
residual activity (%): 69

Line notation: O=Nc1c(-c2c(O)[nH]c3ccccc23)[nH]c2ccccc12
residual activity (%): 13

Line notation: CC(=O)c1ccc(N2CCOCC2)cc1O
residual activity (%): 91

Line notation: NC(=O)c1ccc2[nH]c(-c3ccc(Oc4ccc(Cl)cc4)cc3)nc2c1
residual activity (%): 44

Line notation: Cc1cccc(-c2[nH]c(C(C)(C)C)nc2-c2ccc3c(c2)OCO3)n1
residual activity (%): 96

Line notation: Oc1ccc(-c2nc(-c3ccc(F)cc3)c(-c3ccncc3)[nH]2)cc1
residual activity (%): 106

Line notation: Cn1nc2c3c(cccc31)C(=O)c1ccccc1-2
residual activity (%): 60

Line notation: O=C1c2ccccc2-[n+]2ccc3c([nH]c4ccccc43)c21
residual activity (%): 75

Line notation: CO[C@@H]1[C@H](N(C)C(=O)c2ccccc2)C[C@H]2O[C@]1(C)n1c3ccccc3c3c4c(c5c6ccccc6n2c5c31)C(=O)NC4
residual activity (%): 4

Line notation: CCC(=O)Nc1ccc2ncnc(Nc3cccc(Br)c3)c2c1
residual activity (%): 77

Line notation: CC(=O)O/N=C1\C(=C2\C(=O)Nc3cc(Br)ccc32)Nc2ccccc21
residual activity (%): 67

Line notation: O=C(O)c1ccc2c3c1cccc3c(=O)n1c3ccccc3nc21
residual activity (%): 38
